This listing pairs compounds with measured TGI.
# Tested on: ACHN renal
# assay: NCI tumour cell line growth inhibition, 48 h

The examples below pair each entry with its known result.
CC(=O)NNc1nc(C)c(C(=O)/C=C/C=C/c2ccccc2)s1 | > 100 µM
CC[C@H](C)[C@H](NC(=O)c1ccccn1)C(=O)N(C)[C@H](C[C@@H](OC(C)=O)c1nc(C(=O)N[C@@H](Cc2ccccc2)C[C@H](C)C(=O)OC)cs1)C(C)C | > 100 µM
Cc1cc(Cl)nc(Nc2nc3ccccc3[nH]2)n1 | > 100 µM
O=C(Nc1ccc(Cl)cc1)c1cc2c(cc1Cl)SC(NNCCO)=NS2(=O)=O | > 100 µM
O=C(CC1(O)C(=O)Nc2c(Cl)cc(Cl)cc21)c1ccc(Br)cc1 (stereo not drawn) | 28.8 µM

Quick one: TGI of `Cc1ccc(-c2cc(-c3ccccc3)nc(N)n2)c(O)c1` ?
> 100 µM

Also need CC(C)=CCNc1ncnc2c1c(C#N)cn2C1OC(CO)C(O)C1O (stereo not drawn) , thanks.
> 100 µM

Also need `O=C(CCc1nnc2s/c(=C\c3ccccc3[N+](=O)[O-])c(=O)n12)Nc1cc(Cl)c(Cl)cc1Cl` , thanks.
> 100 µM

Also need `Cc1cc(OCC(=O)O)c(Cl)cc1Cl` , thanks.
> 100 µM

Also need `COc1cc(-c2nccn2-c2ccc3ccccc3c2)cc(OC)c1OC` , thanks.
49.6 µM

Also need `CN=c1ssc(/N=C(\SC)N(C)C)[n+]1C` , thanks.
> 100 µM

Also need `CC(C)(C)/C(O)=C\c1nc2ccc(C(F)(F)F)cc2[nH]c1=O` , thanks.
> 100 µM

Also need `CCn1c(O)c(C=Nc2ccccc2)s/c1=N/Nc1ncc(CC(=O)Nc2ccccc2C)s1` , thanks.
> 100 µM
